testSystem: sCoV2-RBD (Fc-tagged RBD of SARS-CoV-2 S protein) (SARS-CoV-2; human, UniProt P0DTC2 319-541)
measure: pEC50
One number for each entry, as −log10 of the molar value.

- binder: "CoV2-17 (antibody, V domains shown) VH: QVELVESGGGLVKPGGSLRLSCAASGFTFSSYSMNWVRQAPGKGLEWVSSISSSSSYIYYADSVKGRFTISRDNAKNSLYLQMNSLRAEDTAVYYCARGNVDIVATGEVDAFDIWGQGTMVSVSS VL: QAVVTQPPSASGTLGQRVTISCSGSSSTIGSNYVYWYQQLPGTAPKLLIYRNNQRPSGVPDRFSGSKSGTSASLAISGLRSEDEADYYCAAWDDSLSGYVFGTGTQLTVL"
  pEC50: 8.64
- binder: "CoV2-29 (antibody, V domains shown) VH: QVQLVESGGGLVQPGGSLRLSCAASGFTFSSYWMSWVRQAPGKGLEWVANIKQDGSEKYYVDSVKGRFTISRDNAKNSLYLQMNSLRAEDTAVYYCARMADDDFWRDLPGFYMDVWGKGTTVTVSS VL: QAVVTQPASVSGSPGQSITISCTGTSSDVGGYNYVSWYQQHPGKAPKLMIYDVSNRPSGVSNRFSGSKSGNTASLTISGLQAEDEADYYCSSYTSSSTLVFGGGTKVTVL"
  pEC50: 8.39
- binder: "CoV2-18 (antibody, V domains shown) VH: QVQLVQSGAEVKKPGSSVKVSCKASGGTFSNYGISWVRQAPGQGLEWMGGIIPIFGTANYAQKFQGRVTITADKSTRTAYMELSSLRFEDTAVYYCARDRDDALTGLGLGGGFDIWGQGTMVTVSS VL: QAVVTQPPSASGTPGQRVTISCSGSTSNIGTNTANWYQHLPGTAPKLLIYGNDRRPSGVPDRFSGSKSVTSASLAISGLQSEDEADYYCAAWDERLNGYVFGTGTKLTVL"
  pEC50: 8.62

Consider the record given below.
Specify measured pEC50 for CoV2-01 (antibody, V domains shown) VH: QVLLVQSGAEMKKPGASVKVSCKTSGYTFTNSYIHWVRQAPGQGLEWMGWINPISGGTNYAQKFQGRVTMTRDTSINTAYMELSRLRSDDTAVYYCARDRGDYDYGWGTSPFYFDYWGQGTLVTVSS VL: DVQMTQSPSSLSASVGDRVTITCRASQSISRYLNWYQQKPGKAPKLLIYAASSLQSGVPSRFSGSGSGADFTLTISSLQPEDFATYYCQQSFSPPITFGQGTRLEIK .
9.08
